GI50 listing for selected compounds.
- System: NCI-H460
- Measurement Description: NCI tumour cell line growth inhibition, 48 h
Activity calls are given as the source filed them. No stated cut-off is given here; in the data, active = GI50 up to about 1.1 µM and inactive = higher.
Assay Metric: GI50

[[record]]
compound = "CCCCCCCCCCCCCCCCOC(=O)c1cc(O)cc(C(=O)OCCCCCCCCCCCCCCCC)c1"
reading = "> 100 µM (inactive)"

[[record]]
compound = "CC1(C)OC2C(CCP(=O)(O)O)OC(c3nc(C(N)=O)cs3)C2O1 (stereo not given)"
reading = "> 100 µM (inactive)"

[[record]]
compound = "Cc1ccc(C(=O)/C=C2\\Nc3ccccc3SC2=O)c(C)c1"
reading = "28.6 µM (inactive)"

[[record]]
compound = "O=c1[nH]c(=O)n(C2CC(O)C(CO)O2)cc1OC/C=C/Cc1ccccc1 (stereo not given)"
reading = "> 100 µM (inactive)"

[[record]]
compound = "O=C1NC2(NC(=O)C1=O)Nc1ccccc1S2"
reading = "51.5 µM (inactive)"

[[record]]
compound = "O=C(CC(C(=O)c1ccsc1)c1cccs1)c1ccsc1 (stereo not given)"
reading = "53.8 µM (inactive)"

[[record]]
compound = "COc1ccc(NC(=O)C2=C(SC)C(C#N)C(=O)N=C2N)cc1 (stereo not given)"
reading = "> 100 µM (inactive)"

[[record]]
compound = "CCOC1=C2N=C(Cc3ccc(F)cc3)NC2C(=O)c2ccccc21 (stereo not given)"
reading = "12.6 µM (inactive)"

[[record]]
compound = "CCN(CCCN(CC)C(=O)N[C@@H](Cc1ccccc1)C(=O)NC)C(=O)N[C@@H](Cc1ccccc1)C(=O)NC"
reading = "> 100 µM (inactive)"

[[record]]
compound = "O=c1[nH]cnc2c1ncn2C1SC(CO)C(O)C1O (stereo not given)"
reading = "> 100 µM (inactive)"

[[record]]
compound = "COc1ccc([C@H]2C=[N+]([O-])O[C@H](OC3CCCC3)[C@@H]2OC(C)=O)cc1OC"
reading = "43.9 µM (inactive)"

[[record]]
compound = "Cc1ccc(-c2nc(-c3nccc4ccccc34)oc2-c2ccccc2)cc1"
reading = "26.7 µM (inactive)"

[[record]]
compound = "N#CC(C#N)=CNC(N)=S"
reading = "> 100 µM (inactive)"

[[record]]
compound = "COc1ccc(/C=C2\\CN(C)CC3=C2OC(N)=C(C#N)C3c2ccc(OC)cc2)cc1 (stereo not given)"
reading = "24.9 µM (inactive)"

[[record]]
compound = "CC[C@H](C)[C@H]1NC(=O)[C@@H](NC(=O)[C@@H](CC(C)C)N(C)CC2CCCN2C(=O)C(C)=O)[C@@H](C)OC(=O)[C@H](Cc2ccc(OC)cc2)N(C)C(=O)C2CCCN2C(=O)[C@H](CC(C)C)NC(=O)[C@@H](C)C(=O)[C@H](C(C)C)OC(=O)C[C@@H]1O (stereo not given in full)"
reading = "0.00381 µM (active)"

[[record]]
compound = "COc1c(-c2cc(C)c(Cl)c(=O)[nH]2)c(O)c(OC)c2occc12"
reading = "> 100 µM (inactive)"

[[record]]
compound = "O=C(/C=C/c1ccccc1Cl)c1cccc2ccccc12"
reading = "2.82 µM (inactive)"

[[record]]
compound = "CC(C)S(=O)(=O)ON1C(=O)c2ccc([N+](=O)[O-])cc2C1=O"
reading = "> 100 µM (inactive)"

[[record]]
compound = "O=S(=O)(O)c1ccc2c(/N=N/c3c(O)ccc4ccccc34)cccc2c1"
reading = "> 100 µM (inactive)"

[[record]]
compound = "C[C@]12CC[C@H](OC(=O)Cc3ccc(N(CCCl)CCCl)cc3)CC1CC[C@@H]1C2CC[C@]2(C)NC(=O)CCC12 (stereo not given in full)"
reading = "5.16 µM (inactive)"

